# target-or-test-system: NGF (nerve growth factor) (Homo sapiens, UniProt P01138 P01138:122-241)
# Sequence (P01138 122-241, one chain of several): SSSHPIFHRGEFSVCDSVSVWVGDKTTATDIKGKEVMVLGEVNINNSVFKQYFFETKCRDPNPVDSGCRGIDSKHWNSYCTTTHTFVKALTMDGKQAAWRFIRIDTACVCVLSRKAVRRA
# test-summary: cell_activity; neurite; TF-1 0.073
# condition-context: tags: R&D Systems; chain copies: 2
measure: IC50

Supply IC50 value. Item: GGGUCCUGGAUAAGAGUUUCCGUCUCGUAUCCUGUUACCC (ssRNA, as 82(25) except dU25) [SEQ ID NO: 82(40)]
0.239 nM
